Every entry's value here was drawn from patent US20160200799A1.

Biological target: Influenza virus A/New Caledonia/20/1999 (H1N1) (Influenza A virus A/New Caledonia/20/1999 (H1N1))
Experiment: ELISA on coated viral particles
measured-parameter: Binding activity (absorbance at 492 nm)

* Group 51 representative clone F083-302, Fab-cp3-type antibody (Fab, V domains shown) VH: QVQLVQSGAEVKKPGSSVKVSCEASGATFSSNAFSWVRQAPGQGPEWMGGIITMFRKAEYAQKFQGRVTITAGELGSTAYMEVRSLTFEDTAVYYCARHSGYHLIGYFDSWGQGTLVTVSS VL: QSVLTQPPSVSAAPGQKVTISCSGTTSNIGNNYVSWYQQLPGAAPKLLIYDNNKRPSGIPDRFSGSKSDTSATLGITGLQTGDEADYYCGTWVSSLSVWVFGGGTKLTVLG | 1.92
* Group 65 representative clone F083-366, Fab-cp3-type antibody (Fab, V domains shown) VH: QVQLVQSGSEVKKPGSSVKVSCKASRGIFSSYAISWVRQAPGQGLEWMGAVIPMFGTLKYAENFQGRITISADKSMSAAYMELSSLRSEDTAVYYCARNYYGSGTYFNDAFDIWGQGTMVTVSS VL: QSVLTQPPSGSGAPGQRVTISCTGGNSNIGAGYDVNGYQQLPGKAPKLLIYGNNNRPSGVPDRFSGSKSGTSASLAITGLQVEDEAHYYCQSYDNGLSGSVFGGGTQLTVLG | 2.93
* Group 58 representative clone F083-307, Fab-cp3-type antibody (Fab, V domains shown) VH: QVQLQQSGADVKKPGSSVKVSCKASGGTFGNYAISWVRQAPGQGLEWMGGITPIFGPANYAQRFQGRVTISADISTRTAYMELSSLRSEDTAIYYCARHPTYYFGSAMEYWGQGTLVTVSS VL: SYELTQPPSVSVAPGQTATITCGGDRIGTGPVHWYQQRPGRAPVLIIYGSTHRPSGIPERFSGSKSVNTATLSISGVGVGDEADYYCQVWDTSTAQPIVFGGGTKLTVLS | 3.3
* Group 62 representative clone F083-349, Fab-cp3-type antibody (Fab, V domains shown) VH: QVQLVQSGAEVRKPGSSVKVSCKASGVIFIKFAISWVRQAPGQGLEWMGGIIPMFGTTNYAQKFQGRVTITADGSTNTVYMELSSLTSEDTAVYYCAKEEGYYYGSGPLDSWGQGTLVTVSS VL: DIVMTQSPDFLSVSLGERVTINCKSSQTVLNRSNNKNYLAWYQKKPGQPPRLLLYWSSTRESGVPDRFSGSGSETDFALTITNLQAEDLAVYFCQQFYDMPVTFGGGTKLEIK | 3.17
* Group 39 representative clone F082-237, Fab-cp3-type antibody (Fab, V domains shown) VH: QVQLVQSGAEVKKPGSSVKVSCKASGGIFNKYGISWVRQAPGQGLEWMGGILAIFGTTNYAQKFQGRVTISADESSTTVYMELSSLTSEDTAVYYCARGNTYYSSYFDQWGQGTLVTVSS VL: QSVLTQPPSVSVAPGQTATITCGGDKIGTGPVHWYQQMPGRAPVLLIYASTHRPSRIPERFSGSKSDNTATLSISGVGVGDEADYYCQMWDSSSVHPIVFGGGTKLTVLS | 1.94
